assay: Fraction unbound in human plasma at 20 MBq after 10 mins by ultrafiltration; assay type: ADME, cell-free
parameter: fraction unbound at 10 min, 20 MBq

# structure smiles string, observed value
rows = [
    ("C#CCN(C)[C@H](C[18F])Cc1ccccc1", 0.168),
]

----------
target: Amine oxidase [flavin-containing] B (Homo sapiens, UniProt P27338); assay: Inhibition of human recombinant MAO-B expressed in insect cells assessed as inhibition of kynuramine oxidation after 30 mins by fluorescence assay
Sequence (P27338 whole entry): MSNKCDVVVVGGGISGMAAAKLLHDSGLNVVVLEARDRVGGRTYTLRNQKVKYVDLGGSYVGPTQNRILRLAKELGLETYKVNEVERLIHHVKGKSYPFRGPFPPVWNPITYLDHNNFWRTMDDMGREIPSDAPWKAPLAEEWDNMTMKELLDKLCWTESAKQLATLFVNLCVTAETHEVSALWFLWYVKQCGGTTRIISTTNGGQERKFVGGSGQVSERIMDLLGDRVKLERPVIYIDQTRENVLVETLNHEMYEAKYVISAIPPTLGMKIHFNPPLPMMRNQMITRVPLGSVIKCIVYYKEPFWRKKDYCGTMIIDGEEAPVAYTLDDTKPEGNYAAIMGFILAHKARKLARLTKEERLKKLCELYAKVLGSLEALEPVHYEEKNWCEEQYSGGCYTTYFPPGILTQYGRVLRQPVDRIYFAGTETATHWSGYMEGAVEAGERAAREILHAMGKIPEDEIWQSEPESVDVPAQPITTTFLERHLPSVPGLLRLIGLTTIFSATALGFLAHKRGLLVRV
pIC50: −log10 of the molar value.

# structure smiles string, pIC50
records = [
    ("C#CCN(CCF)[C@H](C)Cc1ccccc1", "< 5.70"),
    ("C#CCN(C)[C@H](C)[C@H](F)c1ccccc1", "< 5.70"),
    ("C#CCN(C)[C@H](CF)Cc1ccccc1", 6.77),
]

----------
test: Stability of the compound in PBS buffer assessed as half life at pH 7.4; assay type: physicochemical

# structure smiles string, half-life (h)
rows = [
    ("C#CCN(C)[C@H](C)[C@H](F)c1ccccc1", 1.83),
    ("C#CCN(CCF)[C@H](C)Cc1ccccc1", 1.83),
    ("C#CCN(C)[C@H](CF)Cc1ccccc1", 1.83),
]

----------
assay: Fraction unbound in monkey plasma at 20 MBq after 10 mins by ultrafiltration; type: ADME, cell-free, Macaca mulatta; conditions: rhesus monkey

# structure smiles string, fraction unbound at 10 min, 20 MBq
records = [
    ("C#CCN(C)[C@H](C[18F])Cc1ccccc1", 0.241),
]
